Each record here notes measured minimal inhibitory concentration (MIC), SA 489.
# Tested on: Staphylococcus aureus 489
# Run Description: MIC, standard broth micro-dilution assay, SA 489
# Assay type: cell-based
Measure: minimal inhibitory concentration (MIC), SA 489

- Compound: "CC1OC(OC2c3ccc(c(Cl)c3)Oc3cc4cc(c3OC3OC(CO)C(O)C(O)C3OC3CC(C)(NCc5ccc(-c6ccccc6)cc5)C(O)C(C)O3)Oc3ccc(cc3Cl)C(O)C(NC(=O)C3CCCN3C(=O)OC(C)(C)C)C(=O)NC(CC(N)=O)C(=O)NC4C(=O)NC3C(=O)NC2C(=O)NC(C(=O)O)c2cc(O)cc(O)c2-c2cc3ccc2O)CC(C)(N)C1O (stereo not drawn) [Example 29]"
  Obs Value: 0.25
- Compound: "CC1OC(OC2c3ccc(c(Cl)c3)Oc3cc4cc(c3OC3OC(CO)C(O)C(O)C3OC3CC(C)(NCc5ccc(-c6ccccc6)cc5)C(O)C(C)O3)Oc3ccc(cc3Cl)C(O)C(NC(=O)C(CCCCNC(=O)OC(C)(C)C)NC(=O)OC(C)(C)C)C(=O)NC(CC(N)=O)C(=O)NC4C(=O)NC3C(=O)NC2C(=O)NC(C(=O)O)c2cc(O)cc(O)c2-c2cc3ccc2O)CC(C)(N)C1O (stereo not drawn) [Example 19]"
  Obs Value: 1
- Compound: "CC1OC(OC2c3ccc(c(Cl)c3)Oc3cc4cc(c3OC3OC(CO)C(O)C(O)C3OC3CC(C)(NCc5ccc(-c6ccccc6)cc5)C(O)C(C)O3)Oc3ccc(cc3Cl)C(O)C(NC(=O)C3CCCN3)C(=O)NC(CC(N)=O)C(=O)NC4C(=O)NC3C(=O)NC2C(=O)NC(C(=O)O)c2cc(O)cc(O)c2-c2cc3ccc2O)CC(C)(N)C1O (stereo not drawn) [Example 12]"
  Obs Value: 2
- Compound: "CSCCC(NC(=O)OC(C)(C)C)C(=O)NC1C(=O)NC(CC(N)=O)C(=O)NC2C(=O)NC3C(=O)NC(C(=O)NC(C(=O)O)c4cc(O)cc(O)c4-c4cc3ccc4O)C(OC3CC(C)(N)C(O)C(C)O3)c3ccc(c(Cl)c3)Oc3cc2cc(c3OC2OC(CO)C(O)C(O)C2OC2CC(C)(NCc3ccc(-c4ccccc4)cc3)C(O)C(C)O2)Oc2ccc(cc2Cl)C1O (stereo not drawn)"
  Obs Value: 1
- Compound: "CC1OC(OC2c3ccc(c(Cl)c3)Oc3cc4cc(c3OC3OC(CO)C(O)C(O)C3OC3CC(C)(NCc5ccc(-c6ccccc6)cc5)C(O)C(C)O3)Oc3ccc(cc3Cl)C(O)C(NC(=O)C(N)CCCCN)C(=O)NC(CC(N)=O)C(=O)NC4C(=O)NC3C(=O)NC2C(=O)NC(C(=O)O)c2cc(O)cc(O)c2-c2cc3ccc2O)CC(C)(N)C1O (stereo not drawn) [Example 31]"
  Obs Value: 2
